# ASSAY OVERVIEW: xn = mol fraction of the nth substance listed
# TEST CONTEXT: 308.15 K; 101 kPa; x2 = 0.05
Consider the following compounds and their measured viscosity readings.

| COMPOUND | viscosity / mPa·s |
| --- | --- |
| CCCCCCCCO + CO | 4.941 |
| CCCCCCCCO + CCO | 4.994 |
| CCCCCCCCO + CCCCO | 5.06 |
| CCCCCCCCO + CCCO | 4.92 |

----------
Consider the following compounds and their measured viscosity readings.
# ASSAY OVERVIEW: xn = mol fraction of the nth substance listed
# TEST CONTEXT: 318.15 K; 101 kPa; x2 = 0.45
MEASURED QUANTITY: viscosity (mPa·s)

| COMPOUND | MEASURED QUANTITY | REPORTED MEASUREMENT |
| --- | --- | --- |
| CCCCCCCCO + CCCCO | viscosity | 2.736 |
| CCCCCCCCO + CCO | viscosity | 2.301 |
| CCCCCCCCO + CO | viscosity | 2.11 |
| CCCCCCCCO + CCCO | viscosity | 2.581 |
